Give melting point for every item shown.

Please fill in: melting point reported for O=C(NNS(=O)(=O)c1cccc(F)c1)c1cnc2ccccc2c1 (hydrate or solvate) = 247.8 to 248.4 °C

Please fill in: melting point reported for `O=C(NNS(=O)(=O)c1ccc(F)cc1)c1cc2cc(Cl)ccc2o1` = 229.4 to 230.5 °C

Please fill in: melting point reported for Cc1ccc2oc(C(=O)NNS(=O)(=O)c3ccccc3C)cc2c1 (hydrate or solvate) = 174.5 to 174.7 °C

Please fill in: melting point reported for `O=C(NNS(=O)(=O)c1ccccc1)c1ccc2[nH]c3c(c2c1)CCCC3` = > 250 °C

Please fill in: melting point reported for `O=C(NNS(=O)(=O)c1ccc(F)c(Cl)c1)c1ccc2oc3ccccc3c2c1` = 210.8 to 211.6 °C

Please fill in: melting point reported for O=C(NNS(=O)(=O)c1cccc(Cl)c1)c1ccc2ncccc2c1 (hydrate or solvate) = 238.4 to 239.1 °C

Please fill in: melting point reported for `O=C(NNS(=O)(=O)c1ccccc1OC(F)(F)F)c1ccc2ncccc2c1` = 243.5 to 243.9 °C

Please fill in: melting point reported for Cc1cccc2cc(C(=O)NNS(=O)(=O)c3ccccc3)oc12 (hydrate or solvate) = 217.5 to 218 °C

Please fill in: melting point reported for O=C(NNS(=O)(=O)c1cc(Cl)cc(Cl)c1)c1ccc2ncccc2c1 (hydrate or solvate) = 241.6 to 242.3 °C

Please fill in: melting point reported for `O=C(NNS(=O)(=O)c1ccccc1)c1cc2cccc(Cl)c2o1` = 223 to 224 °C

Please fill in: melting point reported for `Cc1cccc(S(=O)(=O)NNC(=O)c2cc3cc(Cl)ccc3o2)c1` = 201.2 to 201.6 °C

Please fill in: melting point reported for `O=C(NNS(=O)(=O)c1ccccc1OC(F)(F)F)c1cc2cc(Cl)cc(Cl)c2o1` = 234.5 to 236.1 °C

Please fill in: melting point reported for Cc1ccc2oc(C(=O)NNS(=O)(=O)c3ccccc3OC(F)(F)F)cc2c1 (hydrate or solvate) = 226.7 to 227 °C

Please fill in: melting point reported for COc1cccc2cc(C(=O)NNS(=O)(=O)c3cccc(C)c3)oc12 (hydrate or solvate) = 170.8 to 171.8 °C

Please fill in: melting point reported for Cc1c(C(=O)NNS(=O)(=O)c2ccccc2)oc2ccc(Cl)cc12 (hydrate or solvate) = 246.8 to 247.8 °C

Please fill in: melting point reported for `COc1cccc(S(=O)(=O)NNC(=O)c2ccc3oc4ccccc4c3c2)c1` = 199.5 to 200.5 °C

---

assay-target: rat BCAT cytosolic form (Rattus norvegicus)
assay-remarks: In vitro coupled enzyme assay (glutamate dehydrogenase, NADH formation), rat BCATc
conditions: recombinant rat BCATc, 37° C., 25 mM phosphate buffer pH 7.8; several values in a cell = repeat determinations; read-out: RrBCATc
Lab note: class by IC50, see lower range = under 700 nM, middle range = from 700 nM up to 4000 nM, upper range = 4000 nM and over

Exercise: Class for O=C(NNS(=O)(=O)c1cccc(Br)c1)c1cc2cc(Cl)cc(Cl)c2o1 [Example 74] ?
Key: middle range

Exercise: Class for O=C(NNS(=O)(=O)c1ccccc1)c1ccc2[nH]ccc2c1 [Example 153] ?
Key: middle range

Exercise: Class for O=C(NNS(=O)(=O)c1cccc(F)c1)c1ccc2oc3ccccc3c2c1 [Example 35] ?
Key: lower range

Exercise: Class for O=C(NNS(=O)(=O)c1ccccc1)c1cnc2ccccc2c1 [Example 154] ?
Key: middle range

Exercise: Class for O=C(NNS(=O)(=O)c1ccccc1)c1ccc2oc3ccccc3c2c1 [Example 1] ?
Key: lower range

Exercise: Class for O=C(NNS(=O)(=O)c1ccccc1C(F)(F)F)c1cnc2ccccc2c1 [Example 135] ?
Key: middle range

Exercise: Class for N#Cc1cccc(S(=O)(=O)NNC(=O)c2cc3cc(Cl)ccc3o2)c1 [Example 27] ?
Key: upper range

Exercise: Class for COc1ccc2cc(C(=O)NNS(=O)(=O)c3ccccc3)oc2c1 [Example 56] ?
Key: lower range

Exercise: Class for COc1c(C(=O)NNS(=O)(=O)c2ccc(F)cc2)oc2c(OC)cccc12 [Example 63] ?
Key: upper range

Exercise: Class for Cc1cccc2oc(C(=O)NNS(=O)(=O)c3ccccc3)cc12 [Example 87] ?
Key: middle range

Exercise: Class for O=C(NNS(=O)(=O)c1ccc(Br)cc1OC(F)(F)F)c1ccc2oc3ccccc3c2c1 [Example 99] ?
Key: upper range

Exercise: Class for Cc1ccc(S(=O)(=O)NNC(=O)c2ccc3ccccc3c2)cc1 [Example 112] ?
Key: upper range

Exercise: Class for O=C(NNS(=O)(=O)c1ccccc1)c1cc2ccccc2o1 [Example 146] ?
Key: middle range

Exercise: Class for O=C(NNS(=O)(=O)c1ccccc1)c1ccc2ncccc2c1 [Example 13] ?
Key: lower range

Exercise: Class for O=C(NNS(=O)(=O)c1ccccc1F)c1ccc2oc3ccccc3c2c1 [Example 92] ?
Key: middle range

Exercise: Class for O=C(NNS(=O)(=O)c1ccccc1)c1ccc2c(c1)CCO2 [Example 149] ?
Key: middle range

Exercise: Class for COc1cccc2cc(C(=O)NNS(=O)(=O)c3ccc(F)cc3)oc12 [Example 23] ?
Key: upper range

Exercise: Class for COc1c(C(=O)NNS(=O)(=O)c2ccccc2)oc2ccc(-c3ccccc3)cc12 [Example 65] ?
Key: lower range

Exercise: Class for O=C(NNS(=O)(=O)c1cccc(Cl)c1)c1cc2cc(Cl)cc(Cl)c2o1 [Example 75] ?
Key: middle range

Exercise: Class for O=C(NNS(=O)(=O)c1cccc(Cl)c1)c1cc2cc(Cl)ccc2o1 [Example 43] ?
Key: lower range

Exercise: Class for Cc1cccc(S(=O)(=O)NNC(=O)c2cnc3ccccc3c2)c1 [Example 125] ?
Key: middle range

Exercise: Class for COc1cccc(S(=O)(=O)NNC(=O)c2cc3cc(Cl)ccc3o2)c1 [Example 48] ?
Key: middle range

Exercise: Class for COc1cc(OC)c2cc(C(=O)NNS(=O)(=O)c3ccccc3)oc2c1 [Example 60] ?
Key: lower range

Exercise: Class for O=C(NNS(=O)(=O)c1ccccc1)c1cc2cc(Br)ccc2o1 [Example 29] ?
Key: lower range

Exercise: Class for O=C(NNS(=O)(=O)c1ccccc1)c1ccc2c(c1)OCO2 [Example 10] ?
Key: middle range

Exercise: Class for O=C(NNS(=O)(=O)c1cccc(Br)c1)c1cc2cc(Cl)ccc2o1 [Example 45] ?
Key: lower range

Exercise: Class for COc1cccc(S(=O)(=O)NNC(=O)c2cc3cccc(OC)c3o2)c1 [Example 109] ?
Key: lower range

Exercise: Class for O=C(NNS(=O)(=O)c1cc(C(F)(F)F)cc(C(F)(F)F)c1)c1ccc2oc3ccccc3c2c1 [Example 32] ?
Key: upper range

Exercise: Class for Cc1c(C(=O)NNS(=O)(=O)c2ccccc2)oc2ccc(Cl)cc12 [Example 90] ?
Key: upper range

Exercise: Class for O=C(NNS(=O)(=O)c1ccccc1OC(F)(F)F)c1cnc2ccccc2c1 [Example 126] ?
Key: upper range

Exercise: Class for O=C(O)c1ccc(S(=O)(=O)NNC(=O)c2ccc3oc4ccccc4c3c2)cc1 [Example 101] ?
Key: upper range

Exercise: Class for Cc1ccc(S(=O)(=O)NNC(=O)c2ccc3oc4ccccc4c3c2)cc1[N+](=O)[O-] [Example 96] ?
Key: upper range

Exercise: Class for COc1cccc2cc(C(=O)NNS(=O)(=O)c3cccc(Cl)c3Cl)oc12 [Example 104] ?
Key: middle range

Exercise: Class for O=C(NNS(=O)(=O)c1ccccc1)c1cc2cc([N+](=O)[O-])ccc2o1 [Example 34] ?
Key: lower range

Exercise: Class for O=C(NNS(=O)(=O)c1ccccc1)c1cc2cc(Cl)ccc2o1 [Example 8] ?
Key: lower range

---

assay-target: rat BCAT cytosolic form (Rattus norvegicus, UniProt P54690)
Sequence (P54690 whole entry): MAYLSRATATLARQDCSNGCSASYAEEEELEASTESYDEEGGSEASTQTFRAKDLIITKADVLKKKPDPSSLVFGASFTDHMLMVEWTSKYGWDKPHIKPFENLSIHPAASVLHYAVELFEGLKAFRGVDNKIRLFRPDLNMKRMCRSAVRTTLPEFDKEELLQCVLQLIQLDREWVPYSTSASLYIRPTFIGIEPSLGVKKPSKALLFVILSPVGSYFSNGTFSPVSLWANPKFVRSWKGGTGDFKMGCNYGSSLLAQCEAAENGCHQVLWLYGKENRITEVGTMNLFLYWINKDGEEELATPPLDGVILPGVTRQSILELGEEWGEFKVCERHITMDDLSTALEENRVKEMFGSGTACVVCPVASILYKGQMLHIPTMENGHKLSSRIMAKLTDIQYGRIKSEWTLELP
assay-remarks: In vitro coupled enzyme assay (glutamate dehydrogenase, NADH formation), rat BCATc
conditions: recombinant rat BCATc, 37° C., 25 mM phosphate buffer pH 7.8; several values in a cell = repeat determinations; read-out: RrBCATc
pIC50: −log10 of the molar value.
Assign criterion met to entries whose pIC50 meets or exceeds 6; assign criterion not met to the rest.

Exercise: # bool: pIC50 of `O=C(NNS(=O)(=O)c1cccc(F)c1)c1ccc2ccccc2c1` >= 6
Key: criterion not met

Exercise: # bool: pIC50 of `COc1c(C(=O)NNS(=O)(=O)c2cccc(C)c2)oc2c(OC)cccc12` >= 6
Key: criterion met

Exercise: # bool: pIC50 of `O=C(NNS(=O)(=O)c1ccccc1OC(F)(F)F)c1ccc2oc3ccccc3c2c1` >= 6
Key: criterion met

Exercise: # bool: pIC50 of `Cc1ccc2oc(C(=O)NNS(=O)(=O)c3ccccc3C)cc2c1` >= 6
Key: criterion met

Exercise: # bool: pIC50 of `O=C(NNS(=O)(=O)c1cc(C(F)(F)F)ccc1Cl)c1ccc2oc3ccccc3c2c1` >= 6
Key: criterion not met

Exercise: # bool: pIC50 of `Cc1cccc(S(=O)(=O)NNC(=O)c2ccc3ccccc3c2)c1` >= 6
Key: criterion met

Exercise: # bool: pIC50 of `COc1c(C(=O)NNS(=O)(=O)c2ccccc2C(F)(F)F)oc2c(OC)cccc12` >= 6
Key: criterion met
